Numbers sourced from patent US20250297032A1.

Reported OD 450 nm values are given for each entry in this list.
# system name: T1, human FAPα-His tag (Sino biological) (human, UniProt Q12884 26-760)
# T1 construct: Bought protein; also called human FAPα-His protein; not shown: His tag
# T1 sequence (looked up): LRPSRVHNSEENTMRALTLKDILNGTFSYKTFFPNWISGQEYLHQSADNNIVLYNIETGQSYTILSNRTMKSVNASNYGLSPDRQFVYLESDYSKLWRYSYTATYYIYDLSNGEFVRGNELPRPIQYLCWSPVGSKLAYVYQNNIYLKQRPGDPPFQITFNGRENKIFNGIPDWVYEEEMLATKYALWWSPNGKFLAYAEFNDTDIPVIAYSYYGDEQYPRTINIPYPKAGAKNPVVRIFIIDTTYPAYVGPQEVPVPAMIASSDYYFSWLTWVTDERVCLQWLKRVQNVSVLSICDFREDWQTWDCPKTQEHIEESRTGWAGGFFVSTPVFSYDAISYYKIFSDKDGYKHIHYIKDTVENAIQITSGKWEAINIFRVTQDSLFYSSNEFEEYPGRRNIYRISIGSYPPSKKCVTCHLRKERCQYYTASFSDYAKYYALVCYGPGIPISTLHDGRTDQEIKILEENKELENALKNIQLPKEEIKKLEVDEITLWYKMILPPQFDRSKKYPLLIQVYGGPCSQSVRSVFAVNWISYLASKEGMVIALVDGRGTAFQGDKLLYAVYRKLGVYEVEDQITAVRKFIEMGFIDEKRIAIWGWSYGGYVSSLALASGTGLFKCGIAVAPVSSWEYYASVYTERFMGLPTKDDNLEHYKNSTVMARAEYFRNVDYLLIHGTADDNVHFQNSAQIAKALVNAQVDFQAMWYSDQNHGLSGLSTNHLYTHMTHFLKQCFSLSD
# assay details: competitive ELISA on coated human FAPα; competitor (detected): FAP-G14-Bio
parameter measured: OD 450 nm (OD 450 nm)

binder	observed value
G52 (antibody, V domains shown, Tested as a mAb; also called FAP-G52; FAP-G52-Bio (biotin-conjugated form)) VH: EVQLLESGGDLVQPGGSLRLSCAASGFTFSSYAMSWVRQAPGKGLEWVSGISNGGDSIAYADSVKGRFTVFRDNAKNTLYLQMNSLRAEDTAIYYCARGNYYAHDDWGQGTLVTVSA VL: DIQLTQSPSSVSASVGDRVTITCRASQGVGSWLAWYQQKPGKPPKLLIYAASSLQSGVPSRFSGSGSGTDFTLTISSLQPEDFATYYCQQANSFPLTFGGGTKVEIK	0.358
G14 (antibody, V domains shown, Full human antibody from a Fab phage library; Tested as a mAb (detected with anti-human IgG, captured on Protein A); also called FAP-G14; FAP-G14-Bio (biotin-conjugated form)) VH: QVQLLESGGGVVQPGRSLRLSCAASGFTFSSYAMHWVRQAPGKGLEWVAFISHDGNRNSYADSVRGRFTISRDNSKNTLYLQMNSLRAEDTAVYYCARDLGYYNGFSYWGQGTLVTVSA VL: DIVMTQSPSSVSASVGDRVTITCRASQGISSWLAWYQQKPGKAPKLLIYAASSLQSGVPSRFSGSGSGTDFTLTISSLQPEDFATYYCQQANSFPPTFGPGTKVDIK	0.209
J40 (antibody, V domains shown, Tested as a mAb; also called FAP-J40; FAP-J40-Bio (biotin-conjugated form)) VH: EVQLLESGGGLVQPGGSLRLSCAASGFTFSSYAMSWVRQAPGKGLEWVSAISGSGGSTYYADSVKGRFTISRDNSKNTLYLQMNSLRTDDTAVYYCARDLTTSTGWESWGQGTLVTVSA VL: NIQMTQSPSSVSASVGDRVTITCRASQGISSWLAWYQQKPGKAPKLLIYAASSLQSGVPSRFSGSGSGTDFTLTISSLQPEDFATYYCQQANSFPPTFGQGTKLEIK	0.167
I38 (antibody, V domains shown, Tested as a mAb; also called FAP-I38) VH: EVQLVQSGAEVKEPGVSVKVSCKASGYTFASYGLSWVRLAPGQGLQWMGWISPYTPNPIYAPNFRDKVILTTDRSTNTAYLEVRSLRSDDTGLYYCARNHWVGRPTRAFDLWGQGTMVTVSA VL: EIVLTQSPGTLSLSPGERATLSCRASQTVSITHLAWYQQKPGQAPRLLTYGASARATGIPDRFSVSGSGTDFTLTITRLEPEDFAVYYCQHYGSSITFGGGTKVEIK	0.149
